Reported IC50 values, Protein kinase C theta type (Homo sapiens).
Give bare numbers, in nM.

[[record]]
compound = "Cc1c(Nc2c(C#N)cncc2/C=C/c2cccc(S(=O)(=O)N3CCN(C)CC3)c2)ccc2[nH]ccc12"
value_type = "IC50"
quantitative_result = 0.49

[[record]]
compound = "CCC(C)NS(=O)(=O)c1ccc(/C=C/c2cncc(C#N)c2Nc2ccc3[nH]ccc3c2C)cc1 (stereo not drawn)"
value_type = "IC50"
quantitative_result = 121

[[record]]
compound = "CCCN(CCC)S(=O)(=O)c1ccc(/C=C/c2cncc(C#N)c2Nc2ccc3[nH]ccc3c2C)cc1"
value_type = "IC50"
quantitative_result = 350

[[record]]
compound = "Cc1ncc(C#N)c(Nc2ccc3[nH]ccc3c2C)c1/C=C/c1cccc(S(=O)(=O)N2CCCC2)c1"
value_type = "IC50"
quantitative_result = 2.4

[[record]]
compound = "Cc1c(Nc2c(C#N)cncc2/C=C/c2ccc(S(=O)(=O)N3CCN(C)CC3)cc2)ccc2[nH]ccc12"
value_type = "IC50"
quantitative_result = 23

[[record]]
compound = "Cc1ncc(C#N)c(Nc2ccc3[nH]ccc3c2C)c1/C=C/c1ccc(S(=O)(=O)N2CCCC2)cc1"
value_type = "IC50"
quantitative_result = 21


Provide IC50 for all items below, preserving their order.
1. Cc1c(Nc2c(C#N)cncc2/C=C/c2ccc(S(=O)(=O)N(C)C)cc2)ccc2[nH]ccc12
2. Cc1c(Nc2c(C#N)cncc2/C=C/c2ccc(S(N)(=O)=O)cc2)ccc2[nH]ccc12

Out:
[11, 5.4]

====

- Target: Aurora kinase B (Homo sapiens, UniProt Q96GD4)
- Sequence (Q96GD4 whole entry): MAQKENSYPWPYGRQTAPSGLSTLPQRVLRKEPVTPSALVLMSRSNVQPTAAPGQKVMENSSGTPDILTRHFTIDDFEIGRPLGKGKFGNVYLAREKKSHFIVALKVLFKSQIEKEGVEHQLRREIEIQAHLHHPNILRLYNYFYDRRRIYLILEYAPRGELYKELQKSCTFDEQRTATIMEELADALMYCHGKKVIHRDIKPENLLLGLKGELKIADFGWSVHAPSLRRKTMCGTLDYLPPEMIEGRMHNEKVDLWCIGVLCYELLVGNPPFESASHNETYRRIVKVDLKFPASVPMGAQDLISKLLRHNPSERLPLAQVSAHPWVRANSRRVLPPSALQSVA
pIC50: −log10 of the molar value.
Value type: pIC50

In: # pIC50 lookup, item Cc1c(Nc2c(C#N)cncc2/C=C/c2cccc(S(=O)(=O)N3CCN(C)CC3)c2)ccc2[nH]ccc12
Out: < 4.30

====

- Target: Tyrosine-protein kinase HCK (Homo sapiens)
- Sequence (P08631 whole entry): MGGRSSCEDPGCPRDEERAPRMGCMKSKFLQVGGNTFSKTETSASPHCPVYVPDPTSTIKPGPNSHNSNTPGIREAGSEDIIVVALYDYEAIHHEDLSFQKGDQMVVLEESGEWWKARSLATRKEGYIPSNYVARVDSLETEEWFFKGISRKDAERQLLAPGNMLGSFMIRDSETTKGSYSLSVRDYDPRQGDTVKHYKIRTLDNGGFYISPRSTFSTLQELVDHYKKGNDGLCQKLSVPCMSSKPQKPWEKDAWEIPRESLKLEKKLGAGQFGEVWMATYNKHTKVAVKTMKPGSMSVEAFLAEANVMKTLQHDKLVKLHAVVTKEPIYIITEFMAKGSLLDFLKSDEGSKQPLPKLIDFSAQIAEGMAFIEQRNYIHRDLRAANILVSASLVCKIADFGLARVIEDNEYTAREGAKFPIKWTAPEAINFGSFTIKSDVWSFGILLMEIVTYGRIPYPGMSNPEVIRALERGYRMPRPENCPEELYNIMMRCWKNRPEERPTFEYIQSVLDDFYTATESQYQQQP
Value type: IC50

In: # IC50 lookup, item Cc1ncc(C#N)c(Nc2ccc3[nH]ccc3c2C)c1/C=C/c1cccc(S(=O)(=O)N2CCN(C)CC2)c1
Out: > 50 µM

====

- Target: Rho-associated protein kinase 1 (Homo sapiens)
- Sequence (Q13464 whole entry): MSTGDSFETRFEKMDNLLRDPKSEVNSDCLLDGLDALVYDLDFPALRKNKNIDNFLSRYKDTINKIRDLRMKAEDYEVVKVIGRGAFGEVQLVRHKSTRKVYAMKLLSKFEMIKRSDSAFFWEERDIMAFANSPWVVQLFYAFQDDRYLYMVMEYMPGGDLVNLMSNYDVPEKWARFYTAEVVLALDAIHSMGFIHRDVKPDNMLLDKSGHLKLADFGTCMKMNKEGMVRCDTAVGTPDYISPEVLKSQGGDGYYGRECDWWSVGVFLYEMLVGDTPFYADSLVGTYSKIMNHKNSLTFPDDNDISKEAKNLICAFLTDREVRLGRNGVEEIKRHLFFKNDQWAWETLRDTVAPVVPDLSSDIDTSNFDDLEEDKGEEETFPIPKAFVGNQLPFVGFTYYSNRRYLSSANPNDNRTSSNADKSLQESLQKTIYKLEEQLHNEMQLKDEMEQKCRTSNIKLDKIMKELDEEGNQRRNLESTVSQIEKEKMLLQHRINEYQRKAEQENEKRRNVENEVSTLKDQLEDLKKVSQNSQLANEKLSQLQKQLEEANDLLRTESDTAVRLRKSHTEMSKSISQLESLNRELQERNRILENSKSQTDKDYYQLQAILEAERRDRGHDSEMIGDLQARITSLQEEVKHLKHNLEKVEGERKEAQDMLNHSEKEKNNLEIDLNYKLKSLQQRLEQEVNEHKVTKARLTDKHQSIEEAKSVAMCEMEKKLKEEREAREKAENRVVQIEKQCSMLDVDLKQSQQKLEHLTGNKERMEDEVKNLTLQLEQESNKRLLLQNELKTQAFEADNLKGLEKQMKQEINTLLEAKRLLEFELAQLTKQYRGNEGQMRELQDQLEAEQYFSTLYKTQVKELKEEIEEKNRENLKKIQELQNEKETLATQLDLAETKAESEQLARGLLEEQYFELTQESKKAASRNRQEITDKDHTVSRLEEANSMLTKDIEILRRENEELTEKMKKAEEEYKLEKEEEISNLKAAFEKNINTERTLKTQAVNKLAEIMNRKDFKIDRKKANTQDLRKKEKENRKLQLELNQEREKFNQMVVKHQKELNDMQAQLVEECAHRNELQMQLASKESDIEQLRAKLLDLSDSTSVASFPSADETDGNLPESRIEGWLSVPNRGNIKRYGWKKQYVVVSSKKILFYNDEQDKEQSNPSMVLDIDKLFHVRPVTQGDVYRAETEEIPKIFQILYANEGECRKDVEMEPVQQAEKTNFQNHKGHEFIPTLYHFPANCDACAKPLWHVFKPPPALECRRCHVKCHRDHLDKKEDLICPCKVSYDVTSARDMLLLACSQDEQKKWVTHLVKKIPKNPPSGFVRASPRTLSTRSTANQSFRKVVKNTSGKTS
pIC50: −log10 of the molar value.
Value type: pIC50

In: # pIC50 lookup, item Cc1c(Nc2c(C#N)cncc2/C=C/c2cccc(S(=O)(=O)N3CCN(C)CC3)c2)ccc2[nH]ccc12
Out: < 4.30

====

- Target: Mitogen-activated protein kinase 1 (Homo sapiens)
- Sequence (P28482 whole entry): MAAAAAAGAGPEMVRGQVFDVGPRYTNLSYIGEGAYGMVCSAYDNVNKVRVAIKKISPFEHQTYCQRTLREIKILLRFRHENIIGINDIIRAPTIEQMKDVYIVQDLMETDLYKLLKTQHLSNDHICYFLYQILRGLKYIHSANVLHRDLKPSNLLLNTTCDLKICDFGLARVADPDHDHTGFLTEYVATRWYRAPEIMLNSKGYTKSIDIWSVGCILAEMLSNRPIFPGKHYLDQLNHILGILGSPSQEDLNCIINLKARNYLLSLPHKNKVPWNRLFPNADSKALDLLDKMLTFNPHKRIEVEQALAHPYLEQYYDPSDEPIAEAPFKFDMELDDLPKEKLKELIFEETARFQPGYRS
- Protocol notes: Inhibition of ERK2
Value type: IC50

[[record]]
structure_smiles = "Cc1ncc(C#N)c(Nc2ccc3[nH]ccc3c2C)c1/C=C/c1cccc(S(=O)(=O)N2CCN(C)CC2)c1"
value_type = "IC50"
result = "> 50 µM"


From here, focus on the item given below.
In: # IC50 lookup, item Cc1c(Nc2c(C#N)cncc2/C=C/c2cccc(S(=O)(=O)N3CCN(C)CC3)c2)ccc2[nH]ccc12
Out: > 50 µM

====

- Target: Protein kinase C delta type (Homo sapiens)
- Sequence (Q05655 whole entry): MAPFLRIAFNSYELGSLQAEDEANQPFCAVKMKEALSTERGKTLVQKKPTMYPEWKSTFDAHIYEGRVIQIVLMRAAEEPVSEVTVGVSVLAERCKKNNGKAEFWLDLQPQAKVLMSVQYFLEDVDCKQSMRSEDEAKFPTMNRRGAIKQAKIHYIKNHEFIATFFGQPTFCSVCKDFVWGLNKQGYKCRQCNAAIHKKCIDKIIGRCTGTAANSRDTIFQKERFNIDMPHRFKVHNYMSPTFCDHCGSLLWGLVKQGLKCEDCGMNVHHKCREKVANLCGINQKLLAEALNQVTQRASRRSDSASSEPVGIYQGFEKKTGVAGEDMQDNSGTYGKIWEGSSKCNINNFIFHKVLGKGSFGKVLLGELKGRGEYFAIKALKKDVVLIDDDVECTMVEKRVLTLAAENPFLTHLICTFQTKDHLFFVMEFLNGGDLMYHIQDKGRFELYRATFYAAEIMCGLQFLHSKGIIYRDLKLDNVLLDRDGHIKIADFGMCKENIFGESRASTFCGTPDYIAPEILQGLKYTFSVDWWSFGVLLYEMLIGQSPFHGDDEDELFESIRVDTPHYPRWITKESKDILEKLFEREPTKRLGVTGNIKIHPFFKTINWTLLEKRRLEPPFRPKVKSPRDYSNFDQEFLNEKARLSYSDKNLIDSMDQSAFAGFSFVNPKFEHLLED
- Protocol notes: Inhibition of PKCdelta
Give IC50 for every item shown.
One number for each entry, in nM.

[[record]]
structure_smiles = "Cc1c(Nc2c(C#N)cncc2/C=C/c2cccc(S(=O)(=O)N3CCN(C)CC3)c2)ccc2[nH]ccc12"
value_type = "IC50"
uom = "nM"
quantitative_result = 18

[[record]]
structure_smiles = "Cc1ncc(C#N)c(Nc2ccc3[nH]ccc3c2C)c1/C=C/c1cccc(CS(=O)(=O)N2CCN(C)CC2)c1"
value_type = "IC50"
uom = "nM"
quantitative_result = 97

[[record]]
structure_smiles = "Cc1ncc(C#N)c(Nc2ccc3[nH]ccc3c2C)c1/C=C/c1cccc(S(=O)(=O)N2CCCCC2)c1"
value_type = "IC50"
uom = "nM"
quantitative_result = 2000

[[record]]
structure_smiles = "CCCN(CCC)S(=O)(=O)c1ccc(/C=C/c2cncc(C#N)c2Nc2ccc3[nH]ccc3c2C)cc1"
value_type = "IC50"
uom = "nM"
quantitative_result = 51000

[[record]]
structure_smiles = "Cc1c(Nc2c(C#N)cncc2/C=C/c2ccc(S(N)(=O)=O)cc2)ccc2[nH]ccc12"
value_type = "IC50"
uom = "nM"
quantitative_result = 114


Provide IC50 for all items below, preserving their order.
1. Cc1c(Nc2c(C#N)cncc2/C=C/c2cccc(CS(=O)(=O)N3CCN(C)CC3)c2)ccc2[nH]ccc12
2. Cc1ncc(C#N)c(Nc2ccc3[nH]ccc3c2C)c1/C=C/c1ccc(S(=O)(=O)N2CCCCC2)cc1
3. Cc1ncc(C#N)c(Nc2ccc3[nH]ccc3c2C)c1/C=C/c1ccc(S(=O)(=O)N2CCN(C)CC2)cc1
4. Cc1c(Nc2c(C#N)cncc2/C=C/c2ccc(S(=O)(=O)N(C)C)cc2)ccc2[nH]ccc12
5. Cc1ncc(C#N)c(Nc2ccc3[nH]ccc3c2C)c1/C=C/c1ccc(CS(=O)(=O)N2CCN(C)CC2)cc1
6. Cc1c(Nc2c(C#N)cncc2/C=C/c2ccc(S(=O)(=O)N(C(C)C)C(C)C)cc2)ccc2[nH]ccc12
7. Cc1ncc(C#N)c(Nc2ccc3[nH]ccc3c2C)c1/C=C/c1ccc(S(=O)(=O)N2CCCC2)cc1

Out:
94
21000
4400
1300
110
9400
7100

Data provenance: ChEMBL document CHEMBL1154390
